system: E28 (patient-derived glioblastoma stem cells of classical subtype); assay: surviving fraction (nuclei count normalised to DMSO); higher = more cells surviving (less toxic); conditions: 37 nM; exposure time: 72 h;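 further: nuclei counted by high-content imaging of Hoechst-stained cells in laminin-coated 384-well plates, relative to 0.1% DMSO vehicle wells, with staurosporine as cell-death control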
Structures can show the parent of a compound that is named as a salt.
Recorded metric: surviving fraction
Give bare numbers.

Field: example entries. Status: answers known.
Compound	surviving fraction
CC(=O)[C@]1(O)Cc2c(O)c3c(c(O)c2[C@@H](O[C@H]2C[C@H](N)[C@H](O)[C@H](C)O2)C1)C(=O)c1ccccc1C3=O	0.313
CC(C)C(=O)OCC(=O)[C@@]12O[C@H](C3CCCCC3)O[C@@H]1C[C@H]1[C@@H]3CCC4=CC(=O)C=C[C@]4(C)[C@H]3[C@@H](O)C[C@@]12C [Ciclesonide]	1.26
COC(=O)C[C@](O)(CCCC(C)(C)O)C(=O)O[C@@H]1C(OC)=C[C@]23CCCN2CCc2cc4c(cc2[C@H]13)OCO4	0.334
CCC(C)(C)c1ccc(CC(C)CN2C[C@@H](C)O[C@@H](C)C2)cc1 (stereo partly drawn) [Amorolfine hydrochloride]	1.21

Batch lookup, surviving fraction per entry.
1. CC(C)(Oc1ccc(C2CC2(Cl)Cl)cc1)C(=O)O (stereo not drawn) [Ciprofibrate]
2. COc1cc([C@@H]2c3cc4c(cc3[C@H](O)[C@H]3COC(=O)[C@H]23)OCO4)cc(OC)c1OC
3. CC1(C(=O)O)C2CCC(O2)C1(C)C(=O)O (stereo not drawn)

Reply |
1. 1.11
2. 0.324
3. 0.971

Batch lookup, surviving fraction per entry.
1. CC(C)NCC(O)c1ccc(O)c(O)c1 (stereo not drawn) [Isoproterenol hydrochloride]
2. O=C(CCBr)N1CCN(C(=O)CCBr)CC1

Reply |
1: 1.05; 2: 0.966

Batch lookup, surviving fraction per entry.
1. CCn1cc(-c2ccnc3[nH]c(-c4cccc(CN(C)C)c4)cc23)c(-c2ccc(NC(=O)N(C)C)cc2)n1
2. C=CC(=O)Nc1cc(Nc2nccc(-c3cn(C)c4ccccc34)n2)c(OC)cc1N(C)CCN(C)C [Osimertinib mesylate]
3. C#C[C@]1(O)CC[C@H]2[C@@H]3CCc4cc(OC5CCCC5)ccc4[C@H]3CC[C@@]21C

Reply |
1: 0.542; 2: 0.86; 3: 1.08

Batch lookup, surviving fraction per entry.
1. COC(=O)Nc1nc2cc(Sc3ccccc3)ccc2[nH]1
2. C[C@@H](O[C@H]1OCCN(Cc2n[nH]c(=O)[nH]2)[C@H]1c1ccc(F)cc1)c1cc(C(F)(F)F)cc(C(F)(F)F)c1 [Aprepitant]
3. CC(=O)OC[C@H]1O[C@@H]([S-])[C@H](OC(C)=O)[C@@H](OC(C)=O)[C@@H]1OC(C)=O.CCP(CC)CC.[Au+]

Reply |
1: 1.1; 2: 0.982; 3: 0.888

* * *

tested on: E31 (patient-derived glioblastoma stem cells of proneural subtype); assay: surviving fraction (nuclei count normalised to DMSO); higher = more cells surviving (less toxic); conditions: 3000 nM; exposure time: 72 h
Structures can show the parent of a compound that is named as a salt.
Recorded metric: surviving fraction
Answers are plain numbers.

Field: example entries. Status: answers known.
Compound	Numeric readout
Clc1ccc(C(Cn2ccnc2)OCc2ccsc2Cl)c(Cl)c1 (stereo not drawn) [Tioconazole]	0.969
CC[C@H]1CN2CCc3cc(OC)c(OC)cc3[C@@H]2C[C@@H]1C[C@H]1NCCc2cc(OC)c(OC)cc21 [Emetine dihydrochloride hydrate]	0.101
C=CC(=O)Nc1cc(Nc2nccc(-c3cn(C)c4ccccc34)n2)c(OC)cc1N(C)CCN(C)C [Osimertinib mesylate]	0.435

Batch lookup, surviving fraction per entry.
1. C[C@@H]1C[C@@H]([C@H](O)CC2CC(=O)NC(=O)C2)C(=O)[C@@H](C)C1 [Cycloheximide]
2. O=c1c2ccccc2[se]n1-c1ccccc1 [Ebselen]
3. O=C(CCBr)N1CCN(C(=O)CCBr)CC1 [Pipobroman]
4. OCCN1C[C@H](O)[C@@H](O)[C@H](O)[C@H]1CO [Miglitol]
5. CCn1cc(C(=O)O)c(=O)c2cc(F)c(N3CCNCC3)nc21 [Enoxacin]

Reply |
1. 0.261
2. 0.127
3. 0.716
4. 0.956
5. 0.881

Batch lookup, surviving fraction per entry.
1. COc1cccc2c1C(=O)c1c(O)c3c(c(O)c1C2=O)C[C@@](O)(C(=O)CO)C[C@@H]3O[C@H]1C[C@H](N)[C@H](O)[C@H](C)O1 [Doxorubicin hydrochloride]
2. NC(=O)c1cccc2cn(-c3ccc([C@@H]4CCCNC4)cc3)nc12 [Niraparib]
3. C=C[C@H]1CN2CC[C@H]1C[C@@H]2[C@@H](O)c1ccnc2ccc(OC)cc12 [Quinidine hydrochloride monohydrate]
4. CCCCCC[C@H]1C(=O)O[C@H](C)[C@H](NC(=O)c2cccc(NC=O)c2O)C(=O)O[C@@H](C)[C@@H]1OC(=O)CC(C)C [Antimycin A]
5. C#C[C@]1(O)CC[C@H]2[C@@H]3CCC4=CCCC[C@@H]4[C@H]3CC[C@@]21C [Lynestrenol]
6. CCCCC1C(=O)N(c2ccccc2)N(c2ccc(O)cc2)C1=O (stereo not drawn) [Oxyphenbutazone]
7. c1ccc2c(c1)[I+]c1ccccc1-2 [Diphenyleneiodonium chloride]
8. Cc1ccc(C(=O)N(CCCN)[C@@H](c2oc3cc(Cl)ccc3c(=O)c2Cc2ccccc2)C(C)C)cc1

Reply |
1: 0.0645; 2: 0.64; 3: 1.09; 4: 0.661; 5: 1.09; 6: 0.941; 7: 0.216; 8: 0.00446

Batch lookup, surviving fraction per entry.
1. COc1cc(/C=C/C(=O)N2CCC=CC2=O)cc(OC)c1OC [Piperlongumine]
2. CC[C@@]1(O)C(=O)OCc2c1cc1n(c2=O)Cc2cc3cc(O)ccc3nc2-1 [Hydroxy Camptothecine]

Reply |
1: 0.00892; 2: 0.201

* * *

test system: FT3469 (normal neural stem cell line); assay: surviving fraction (nuclei count normalised to DMSO); higher = more cells surviving (less toxic); details: 37 nM; exposure time: 72 h
Counter-ions that a name gives are not always drawn.
Recorded metric: surviving fraction

Field: example entries. Status: answers known.
Compound	surviving fraction
CCn1c(-c2nonc2N)nc2cnc(Oc3cccc(NC(=O)c4ccc(OCCN5CCOCC5)cc4)c3)cc21	1.12
CC(C)C[C@H](NC(=O)[C@H](CCc1ccccc1)NC(=O)CN1CCOCC1)C(=O)N[C@@H](Cc1ccccc1)C(=O)N[C@@H](CC(C)C)C(=O)[C@@]1(C)CO1	0.124
CCCCCC[C@H]1C(=O)O[C@H](C)[C@H](NC(=O)c2cccc(NC=O)c2O)C(=O)O[C@@H](C)[C@@H]1OC(=O)CC(C)C [Antimycin A]	0.872

Batch lookup, surviving fraction per entry.
1. COc1cc(OC)c(C(=O)CCCN2CCCC2)c(OC)c1 [Buflomedil hydrochloride]
2. COc1ccc([C@@H]2CC(=O)c3c(O)cc(O[C@@H]4O[C@H](CO[C@@H]5O[C@@H](C)[C@H](O)[C@@H](O)[C@H]5O)[C@@H](O)[C@H](O)[C@H]4O)cc3O2)cc1O
3. CN[C@@H]1[C@@H](O)[C@@H](O[C@@H]2[C@@H](O)[C@H](O[C@H]3OC(CN)=CC[C@H]3N)[C@@H](N)C[C@H]2N)OC[C@]1(C)O [Sisomicin sulfate]
4. COC(=O)Nc1nc2cc(Sc3ccccc3)ccc2[nH]1

Reply |
1. 1.15
2. 1.05
3. 1.04
4. 0.864

* * *

system: FT3469; test: surviving fraction (nuclei count normalised to DMSO); higher = more cells surviving (less toxic); conditions: 37 nM; exposure time: 72 h
Give surviving fraction for every item shown.
Answers are plain numbers.

Field: example entries. Status: answers known.
Molecule	surviving fraction
CCC(=O)OCC(=O)[C@@]1(OC(=O)CC)[C@H](C)C[C@H]2[C@H]3[C@H]([C@@H](O)C[C@@]21C)[C@@]1(C)C=CC(=O)C=C1C[C@H]3Cl [Alclometasone dipropionate]	1.33
Cc1cc(/C=C/c2ccc3cc(N(C)C)ccc3[n+]2C)c(C)n1-c1ccccc1 [Pyrvinium pamoate]	0.866

Next, consider the following molecule.
Ask | Annotate the molecule Cn1nnc2c(C(N)=O)ncn2c1=O [Temozolomide] with its measured surviving fraction.
Reply | 1

* * *

tested on: E13 (patient-derived glioblastoma stem cells of classical subtype); assay: surviving fraction (nuclei count normalised to DMSO); higher = more cells surviving (less toxic); settings: 1000 nM; exposure time: 72 h
Recorded metric: surviving fraction
Answers are plain numbers.

Compound	Recorded metric	Numeric readout
CC[C@@H]1C(=O)N(C)c2cnc(Nc3ccc(C(=O)N[C@H]4CC[C@H](N5CCN(CC6CC6)CC5)CC4)cc3OC)nc2N1C(C)C	surviving fraction	0.301
NC(=O)c1ccccc1 [Benzamide]	surviving fraction	0.945
CC(=O)O[C@@]12CO[C@@H]1C[C@H](O)[C@@]1(C)C(=O)[C@H](O)C3=C(C)[C@@H](OC(=O)[C@H](O)[C@@H](NC(=O)OC(C)(C)C)c4ccccc4)C[C@@](O)([C@@H](OC(=O)c4ccccc4)[C@H]21)C3(C)C	surviving fraction	0.245
C[C@@H](O)[C@H]1C(=O)N2C(C(=O)O)=C(S[C@@H]3CN[C@H](C(=O)N(C)C)C3)[C@H](C)[C@H]12	surviving fraction	1.31
CC(C)C[C@H](NC(=O)[C@H](Cc1ccccc1)C[C@@H](O)[C@H](Cc1ccccc1)NC(=O)OC(C)(C)C)C(=O)N[C@@H](Cc1ccccc1)C(N)=O	surviving fraction	1.14

Next, consider the following compound.
Ask | Look up E13 data: surviving fraction of CC(C)C[C@H](NC(=O)[C@H](Cc1ccccc1)NC(=O)c1cnccn1)B(O)O , then report it.
Reply | 0.00185
